# Target Desc: CDK12/CycK enzyme (Homo sapiens, UniProt Q9NYV4)
# Sequence (Q9NYV4 whole entry, species assumed): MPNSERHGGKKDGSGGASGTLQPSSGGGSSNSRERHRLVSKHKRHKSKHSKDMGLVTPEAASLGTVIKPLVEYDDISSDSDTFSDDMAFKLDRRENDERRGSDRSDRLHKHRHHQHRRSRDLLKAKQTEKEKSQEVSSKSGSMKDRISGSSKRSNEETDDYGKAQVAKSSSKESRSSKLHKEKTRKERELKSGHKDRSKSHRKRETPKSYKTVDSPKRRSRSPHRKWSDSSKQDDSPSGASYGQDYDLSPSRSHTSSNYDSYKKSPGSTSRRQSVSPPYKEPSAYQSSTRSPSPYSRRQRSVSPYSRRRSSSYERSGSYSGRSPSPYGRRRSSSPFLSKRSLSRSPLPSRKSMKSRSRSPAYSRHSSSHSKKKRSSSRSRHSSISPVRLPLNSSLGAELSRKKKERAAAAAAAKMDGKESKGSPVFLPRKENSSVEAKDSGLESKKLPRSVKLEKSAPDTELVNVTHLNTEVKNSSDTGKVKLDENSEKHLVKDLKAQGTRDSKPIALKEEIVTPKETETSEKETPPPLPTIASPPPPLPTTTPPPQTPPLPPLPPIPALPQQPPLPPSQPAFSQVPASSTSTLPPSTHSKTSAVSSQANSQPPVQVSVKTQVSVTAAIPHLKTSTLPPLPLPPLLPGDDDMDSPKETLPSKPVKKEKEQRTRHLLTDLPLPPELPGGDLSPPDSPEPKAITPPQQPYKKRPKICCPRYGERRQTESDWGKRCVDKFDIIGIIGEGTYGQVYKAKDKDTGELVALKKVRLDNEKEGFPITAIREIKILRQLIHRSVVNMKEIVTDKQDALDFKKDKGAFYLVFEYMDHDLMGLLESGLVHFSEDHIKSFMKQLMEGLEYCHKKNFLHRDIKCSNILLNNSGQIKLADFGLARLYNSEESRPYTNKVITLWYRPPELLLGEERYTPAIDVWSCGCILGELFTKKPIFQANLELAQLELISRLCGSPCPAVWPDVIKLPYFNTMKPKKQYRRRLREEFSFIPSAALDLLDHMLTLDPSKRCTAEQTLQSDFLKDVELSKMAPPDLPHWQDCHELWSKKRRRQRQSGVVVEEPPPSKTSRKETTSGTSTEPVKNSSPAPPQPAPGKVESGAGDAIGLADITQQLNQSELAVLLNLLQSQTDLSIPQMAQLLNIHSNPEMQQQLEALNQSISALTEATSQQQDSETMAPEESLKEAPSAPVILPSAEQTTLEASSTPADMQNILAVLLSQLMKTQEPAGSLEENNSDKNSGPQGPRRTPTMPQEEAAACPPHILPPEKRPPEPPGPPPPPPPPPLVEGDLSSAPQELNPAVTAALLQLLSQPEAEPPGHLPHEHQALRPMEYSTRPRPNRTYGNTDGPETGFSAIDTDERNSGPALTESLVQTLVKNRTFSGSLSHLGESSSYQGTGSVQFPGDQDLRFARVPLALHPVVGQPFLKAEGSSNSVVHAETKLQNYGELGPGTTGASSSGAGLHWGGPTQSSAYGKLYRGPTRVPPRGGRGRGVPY
# Sequence (O75909 whole entry partner, species assumed): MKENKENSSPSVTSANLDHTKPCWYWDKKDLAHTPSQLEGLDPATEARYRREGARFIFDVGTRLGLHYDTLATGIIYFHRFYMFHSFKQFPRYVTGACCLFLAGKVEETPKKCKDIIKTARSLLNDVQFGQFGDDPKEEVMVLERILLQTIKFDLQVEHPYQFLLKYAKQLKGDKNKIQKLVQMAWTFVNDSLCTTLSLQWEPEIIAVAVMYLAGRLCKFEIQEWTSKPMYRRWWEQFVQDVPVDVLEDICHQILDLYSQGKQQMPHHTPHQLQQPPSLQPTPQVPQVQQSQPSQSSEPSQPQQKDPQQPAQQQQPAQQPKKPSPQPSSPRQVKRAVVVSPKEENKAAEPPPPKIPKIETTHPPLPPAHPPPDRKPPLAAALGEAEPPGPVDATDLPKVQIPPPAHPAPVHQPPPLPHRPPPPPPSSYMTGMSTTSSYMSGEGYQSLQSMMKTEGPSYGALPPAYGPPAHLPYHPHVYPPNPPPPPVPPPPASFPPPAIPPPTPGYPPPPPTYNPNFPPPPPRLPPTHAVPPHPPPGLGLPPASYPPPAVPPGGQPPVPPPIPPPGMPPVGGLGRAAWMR
# Assay Protocol: Measurement of CDK12/CycK inhibitory activity (ULight-4E-BP1 peptide phosphorylation, LANCE)
# Type: biochemical
# Assay Conditions: inhibitory rate against CDK12/CycK at 1 μM test compound, ATP 10 μM or 500 μM
Recorded Endpoint: inhibition at 1 µM (%)

molecule=Cc1cc(-c2nc(N[C@H]3CC[C@H](N(C(=O)NCc4ccccc4)c4ccc(-c5cnn(C)c5)cn4)CC3)ncc2C#N)[nH]n1 recorded_endpoint="inhibition at 1 µM" measurement=103
molecule=Cn1cc(-c2cnc(N(C(=O)NCc3ccccc3)[C@H]3CC[C@H](Nc4ncc(C#N)c(NC5COC5)n4)CC3)nc2)cn1 recorded_endpoint="inhibition at 1 µM" measurement=97
molecule=Cn1cc(-c2ccc(N(C(=O)NCc3ccccc3)[C@H]3CC[C@H](Nc4ncc(C#N)c(OC5COC5)n4)CC3)nc2)cn1 recorded_endpoint="inhibition at 1 µM" measurement=103
molecule=Cn1cc(-c2ccc(N(C(=O)NCc3ccccc3)[C@H]3CC[C@H](Nc4ncc(C#N)c(-c5[nH]ncc5Cl)n4)CC3)nc2)cn1 recorded_endpoint="inhibition at 1 µM" measurement=95
molecule=COc1ncc(-c2ccc(N(C(=O)NCc3ccccn3)[C@H]3CC[C@H](Nc4ncc(C(F)(F)F)c(OC5COC5)n4)CC3)nc2)cn1 recorded_endpoint="inhibition at 1 µM" measurement=99
molecule=COc1ncc(-c2ccc(N(C(=O)OCc3ccccc3)[C@H]3CC[C@H](Nc4ncc(C(F)(F)F)c(N5CC(F)(CO)C5)n4)CC3)nc2)cn1 recorded_endpoint="inhibition at 1 µM" measurement=108
molecule="COc1ncc(-c2cnc(N(C(=O)OCc3ccccc3)[C@H]3CC[C@H](Nc4ncc(C#N)c(N5CCCC(O)CC5)n4)CC3)nc2)cn1 (some centres unmarked)" recorded_endpoint="inhibition at 1 µM" measurement=101
molecule=Cn1cc(-c2ccc(N(C(=O)NCc3ccccc3)[C@H]3CC[C@H](Nc4ncc(C#N)c(NC5COC5)n4)CC3)nc2)cn1 recorded_endpoint="inhibition at 1 µM" measurement=98
molecule=COc1ncc(-c2ccc(N(C(=O)OCc3ccccc3)[C@H]3CC[C@H](Nc4ncc(C#N)c(N5CC(F)(CO)C5)n4)CC3)nc2)cn1 recorded_endpoint="inhibition at 1 µM" measurement=103
molecule=COc1ncc(-c2ccc(N(C(=O)OCc3ccccc3)[C@H]3CC[C@H](Nc4ncc(C#N)c(NC5COC5)n4)CC3)nc2)cn1 recorded_endpoint="inhibition at 1 µM" measurement=102
molecule=Cn1ccc(-c2ccc(N(C(=O)NCc3ccccc3)[C@H]3CC[C@H](Nc4ncc(C#N)c(NC5COC5)n4)CC3)cc2)cc1=O recorded_endpoint="inhibition at 1 µM" measurement=104
molecule=Cn1cc(-c2ccc(N(C(=O)NCc3ccccc3)[C@H]3CC[C@H](Nc4ncc(C#N)c(-c5cncc(S(C)(=O)=O)c5)n4)CC3)nc2)cn1 recorded_endpoint="inhibition at 1 µM" measurement=101
molecule="COc1ncc(-c2cnc(N(C(=O)NCc3ccccc3)[C@H]3CC[C@H](Nc4ncc(C#N)c(N5CCCC(O)CC5)n4)CC3)nc2)cn1 (some centres unmarked)" recorded_endpoint="inhibition at 1 µM" measurement=100
molecule=COc1ncc(-c2ccc(N(C(=O)NCc3ccccc3)[C@H]3CC[C@H](Nc4ncc(C#N)c(OC5COC5)n4)CC3)nc2)cn1 recorded_endpoint="inhibition at 1 µM" measurement=107
molecule=Cn1cc(-c2ccc(N(C(=O)NCc3ccccc3)[C@H]3CC[C@H](Nc4ncc(C#N)c(NC5(C)COC5)n4)CC3)nc2)cn1 recorded_endpoint="inhibition at 1 µM" measurement=100
molecule=COc1ncc(-c2ccc(N(C(=O)NCc3ccccc3F)[C@H]3CC[C@H](Nc4ncc(C#N)c(NC5COC5)n4)CC3)nc2)cn1 recorded_endpoint="inhibition at 1 µM" measurement=110
molecule=COc1ncc(-c2cnc(N(C(=O)OCc3ccccc3)[C@H]3CC[C@H](Nc4ncc(C#N)c(NC5COC5)n4)CC3)nc2)cn1 recorded_endpoint="inhibition at 1 µM" measurement=102
